# test_summary: Mouse PK Assays
# condition_context: in vivo, PO 10 mg/kg, 30% SBE-beta-cyclodextrin, fed, read-out: PK-Mouse: PO AUC-0-last
endpoint_label: AUC(0-t)
Dear colleague, please send the value followed by its unit.

Input: Specify measured AUC(0-t) for Cc1cc(C(C)Nc2ccccc2C(=O)O)c2oc(N3CCC(C)(C)CC3)cc(=O)c2c1 (single isomer, unassigned) .
Output: 3.9 ng·h/mL

* * *

# target_entity: human full length PIK3CA H1047R mutant (p110α/p85α complex) (Homo sapiens (Human), UniProt P42336, H1047R)
# Sequence (P42336 whole entry H1047R): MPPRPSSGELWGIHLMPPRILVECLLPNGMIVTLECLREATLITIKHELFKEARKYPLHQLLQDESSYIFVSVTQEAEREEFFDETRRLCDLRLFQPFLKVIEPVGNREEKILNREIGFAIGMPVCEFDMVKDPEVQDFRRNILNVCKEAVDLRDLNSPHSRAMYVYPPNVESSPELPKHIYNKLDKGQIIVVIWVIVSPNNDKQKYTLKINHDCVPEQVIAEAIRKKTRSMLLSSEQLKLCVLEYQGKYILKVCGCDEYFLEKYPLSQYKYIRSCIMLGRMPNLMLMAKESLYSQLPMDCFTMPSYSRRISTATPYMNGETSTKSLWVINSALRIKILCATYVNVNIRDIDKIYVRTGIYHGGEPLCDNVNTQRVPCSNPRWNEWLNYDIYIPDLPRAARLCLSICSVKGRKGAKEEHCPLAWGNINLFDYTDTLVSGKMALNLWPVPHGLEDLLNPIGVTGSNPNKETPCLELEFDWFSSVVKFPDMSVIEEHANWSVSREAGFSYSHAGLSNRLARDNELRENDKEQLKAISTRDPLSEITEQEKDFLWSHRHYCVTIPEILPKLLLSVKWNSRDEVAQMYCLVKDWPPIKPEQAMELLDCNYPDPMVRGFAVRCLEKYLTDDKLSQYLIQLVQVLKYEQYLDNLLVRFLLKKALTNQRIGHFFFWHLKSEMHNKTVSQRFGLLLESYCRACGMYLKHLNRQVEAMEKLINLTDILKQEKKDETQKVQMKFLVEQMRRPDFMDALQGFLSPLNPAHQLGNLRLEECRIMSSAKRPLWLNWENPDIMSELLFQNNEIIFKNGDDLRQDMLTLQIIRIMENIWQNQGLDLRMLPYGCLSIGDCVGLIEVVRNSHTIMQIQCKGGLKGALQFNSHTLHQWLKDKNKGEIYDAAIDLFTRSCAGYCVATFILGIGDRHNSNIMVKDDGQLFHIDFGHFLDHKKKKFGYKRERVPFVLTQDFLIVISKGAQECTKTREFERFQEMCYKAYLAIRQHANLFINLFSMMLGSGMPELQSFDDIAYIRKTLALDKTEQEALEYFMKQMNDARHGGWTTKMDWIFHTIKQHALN
# Sequence (P27986 whole entry partner): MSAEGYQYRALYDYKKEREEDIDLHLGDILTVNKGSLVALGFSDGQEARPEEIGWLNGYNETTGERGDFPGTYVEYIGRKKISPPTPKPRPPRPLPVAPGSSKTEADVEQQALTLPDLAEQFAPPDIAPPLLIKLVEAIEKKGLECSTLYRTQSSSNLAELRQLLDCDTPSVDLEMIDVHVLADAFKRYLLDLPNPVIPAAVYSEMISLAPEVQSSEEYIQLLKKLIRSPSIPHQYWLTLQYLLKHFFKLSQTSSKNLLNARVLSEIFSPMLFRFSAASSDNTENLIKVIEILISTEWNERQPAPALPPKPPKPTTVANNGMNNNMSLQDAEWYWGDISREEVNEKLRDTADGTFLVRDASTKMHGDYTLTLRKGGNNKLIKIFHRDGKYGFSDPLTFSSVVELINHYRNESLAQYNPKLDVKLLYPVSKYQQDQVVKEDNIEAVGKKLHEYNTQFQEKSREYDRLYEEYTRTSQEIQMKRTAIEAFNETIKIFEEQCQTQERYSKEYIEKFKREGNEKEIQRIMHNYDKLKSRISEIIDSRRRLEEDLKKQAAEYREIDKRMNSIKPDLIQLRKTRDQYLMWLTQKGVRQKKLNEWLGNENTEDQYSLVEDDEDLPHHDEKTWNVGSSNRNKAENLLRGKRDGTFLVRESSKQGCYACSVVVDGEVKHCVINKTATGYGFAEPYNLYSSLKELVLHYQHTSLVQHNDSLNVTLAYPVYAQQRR
# test_summary: PI3K-Alpha kinase (PIK3CA) activity, H1047R mutant, Transcreener ADP2 FI assay
# condition_context: PI3K-α (PIK3CA) H1047R mutant, biochemical
pIC50: −log10 of the molar value.
endpoint_label: pIC50

Worked set:
compound: Cc1cc(C(C)Nc2ccccc2C(=O)O)c2oc(N3CCS(=O)(=O)CC3)cc(=O)c2c1 (stereo not shown)
pIC50: 5.30 to 6.00
--
compound: Cc1cc(C(C)Nc2ccccc2C(=O)O)c2oc(N3CC4CCC(C3)O4)cc(=O)c2c1 (stereo not shown)
pIC50: 5.30 to 6.00
--
compound: Cc1c(N2Cc3ccccc3C2)oc2c(C(C)Nc3ccccc3C(=O)O)cc(F)cc2c1=O (single isomer, unassigned)
pIC50: > 6.30
--
compound: Cc1c(N2CCC(F)(F)CC2)oc2c(C(C)Nc3ccccc3C(=O)O)cc(F)cc2c1=O (single isomer, unassigned)
pIC50: > 6.30
--
compound: Cc1cc(C(C)Nc2ccccc2C(=O)O)c2oc(N3CCC(C)(C)CC3)c(C3CC3)c(=O)c2c1 (single isomer, unassigned)
pIC50: > 6.30

Input: Give reported pIC50 value for CC(Nc1ccccc1C(=O)O)c1cc(C(F)(F)F)cc2c(=O)cc(N3Cc4ccc(F)cc4C3)oc12 (single isomer, unassigned)
Output: > 6.30

Input: Complete the entry with pIC50 for Cc1cc(C(C)Nc2ccccc2S(=O)(=O)C(F)F)c2oc(N3CCC(C)(C)CC3)cc(=O)c2c1 (stereo not shown)
Output: 6.00 to 6.30

* * *

# test_summary: Mouse PK Assays
# condition_context: in vivo, PO 100 mg/kg, 20% DMSO/60% PEG400/20% H2O, fed, read-out: PK-Mouse: PO AUC-0-last
endpoint_label: AUC(0-t) (ng·h/mL)
Report as a plain number; the unit ng·h/mL is understood.

Input: Indicate its recorded AUC(0-t); the compound in question is Cc1cc(C(C)Nc2ccccc2C(=O)O)c2oc(N3CCC(C)(C)CC3)cc(=O)c2c1 (single isomer, unassigned)
Output: 76

* * *

# target_entity: human full length PIK3CA H1047R mutant (p110α/p85α complex) (Homo sapiens (Human), UniProt P42336, H1047R)
# test_summary: PI3K-Alpha kinase (PIK3CA) activity, H1047R mutant, Transcreener ADP2 FI assay
# condition_context: PI3K-α (PIK3CA) H1047R mutant, biochemical
Listing: IC50 of selected molecules

molecule: COC1CCN(c2cc(=O)c3cc(C)cc(C(C)Nc4ccccc4C(=O)O)c3o2)CC1 (stereo not shown)
IC50: 0.5 to 1 µM
--
molecule: Cc1cc(C(C)Nc2ccccc2S(=O)(=O)O)c2oc(N3CCC(C)(C)CC3)cc(=O)c2c1 (stereo not shown)
IC50: 1 to 5 µM
--
molecule: Cc1c(N2Cc3ccc(F)cc3C2)oc2c(C(C)Nc3ccccc3C(=O)O)cc(C(F)(F)F)cc2c1=O (single isomer, unassigned)
IC50: < 0.5 µM
--
molecule: CC(Nc1ccccc1C(=O)O)c1cc(C(F)(F)F)cc2c(=O)cc(N3CCC(C)(C)CC3)oc12 (stereo not shown)
IC50: 0.5 to 1 µM
--
molecule: Cc1cc(C(C)Nc2ccccc2C(=O)O)c2oc(N3CC(c4ccccc4)C3)cc(=O)c2c1 (single isomer, unassigned)
IC50: < 0.5 µM

Input: Look up and state reported IC50 for `Cc1cc([C@@H](C)Nc2ccnnc2C(=O)O)c2oc(N3CCC(C)(C)CC3)cc(=O)c2c1`
Output: 1 to 5 µM

Input: Fill in IC50 for record COC12CC(C1)N(c1cc(=O)c3cc(C)cc(C(C)Nc4ccccc4C(=O)O)c3o1)C2 (single isomer, unassigned) [Example 112]
Output: 0.5 to 1 µM

* * *

# test_summary: Mouse PK Assays
# condition_context: in vivo, IV 1 mg/kg, read-out: PK-Mouse: IV Cl
endpoint_label: clearance (mL/min/kg)
Kindly answer with a numeric value in mL/min/kg, unit omitted.

molecule: Cc1cc(C(C)Nc2ccccc2C(=O)O)c2oc(N3CCC(C)(C)CC3)cc(=O)c2c1 (single isomer, unassigned)
endpoint_label: clearance
observed_result: 43

Please look at the following molecule next.
Input: Indicate the recorded clearance value for this molecule: Cc1cc(C(C)Nc2ccccc2C(=O)O)c2oc(N3Cc4ccccc4C3)cc(=O)c2c1 (single isomer, unassigned)
Output: 8.2

* * *

# test_summary: Mouse PK Assays
# condition_context: in vivo, PO 10 mg/kg, 20% DMSO/60% PEG400/20% Water, fed, read-out: PK-Mouse: PO F (%)
endpoint_label: bioavailability (%)
The figure you give is taken to be in %; do not add the unit.

Input: Output bioavailability of Cc1cc(C(C)Nc2ccccc2C(=O)O)c2oc(N3Cc4ccccc4C3)cc(=O)c2c1 (single isomer, unassigned)
Output: 87

* * *

# test_summary: Mouse PK Assays
# condition_context: in vivo, PO 50 mg/kg, 20% DMSO/60% PEG400/20% Water, fed
endpoint_label: Cmax (ng/mL)
Write the value in ng/mL as a bare number.

molecule: Cc1cc(C(C)Nc2ccccc2C(=O)O)c2oc(N3CCC(C)(C)CC3)cc(=O)c2c1 (single isomer, unassigned)
Cmax (ng/mL): 8.56

Now take the following molecule into account.
Input: Please list Cmax recorded for the molecule Cc1cc(C(C)Nc2ccccc2C(=O)O)c2oc(N3Cc4ccccc4C3)cc(=O)c2c1 (single isomer, unassigned)
Output: 5100

* * *

Collected IC50 values appear next to each entry.
# target_entity: human full length PIK3CA H1047R mutant (p110α/p85α complex) (Homo sapiens (Human), UniProt P42336, H1047R)
# test_summary: PI3K-Alpha kinase (PIK3CA) activity, H1047R mutant, Transcreener ADP2 FI assay
# condition_context: PI3K-α (PIK3CA) H1047R mutant, biochemical

Check out these entries, answers already filled in.
compound: Cc1cc(C(C)Nc2ccccc2C(=O)O)c2oc(N3CCCOCC3)cc(=O)c2c1 (stereo not shown) [Example 151]
IC50: 500 to 1000 nM

compound: Cc1cc(C(C)Nc2ccsc2C(=O)O)c2oc(N3CCC(C)(C)CC3)cc(=O)c2c1 (stereo not shown) [Example 39]
IC50: 1000 to 5000 nM

Input: Return the recorded IC50 value; entry: Cc1cc(C(C)Nc2ccccc2C(=O)O)c2oc(N3Cc4ccccc4C3)c(C)c(=O)c2c1 (single isomer, unassigned; isomer 1) [Example 265]
Output: < 500 nM

Input: Give the reported IC50 for this compound. CC(Nc1ccccc1C(=O)O)c1cc(C(F)(F)F)cc2c(=O)cc(N3Cc4ccccc4C3)oc12 (single isomer, unassigned) [Example 342]
Output: < 500 nM

* * *

# target_entity: human full length PIK3CA Wild-type (p110α/p85α complex) (Homo sapiens (Human), UniProt P42336)
# Sequence (P42336 whole entry): as the sequence (P42336 whole entry H1047R) above, with R1047H counted along it
# Sequence (P27986 whole entry partner): as the sequence (P27986 whole entry partner) above
# test_summary: PI3K-Alpha kinase (PIK3CA) activity, wild-type, Transcreener ADP2 FI assay
# condition_context: PI3K-α (PIK3CA) wild-type, biochemical
endpoint_label: IC50

Examples with answers:
molecule: Cc1cc(C(C)Nc2ccccc2C(=O)O)c2oc(N3CC4(C3)CC(F)(F)C4)cc(=O)c2c1 (single isomer, unassigned) [Example 222]
IC50: 1 to 5 µM
--
molecule: Cc1cc(C(C)Nc2cccc3c2C(=O)NC3)c2oc(N3CCC(C)(C)CC3)cc(=O)c2c1 (stereo not drawn) [Example 29]
IC50: 1 to 5 µM
--
molecule: CCc1c(N2CCC(C)(C)CC2)oc2c(C(C)Nc3ccccc3C(=O)O)cc(C)cc2c1=O (stereo not drawn) [Example 55]
IC50: 1 to 5 µM
--
molecule: Cc1cc(C(C)Nc2ccccc2C(=O)O)c2oc(N3C4CCCC3C4)cc(=O)c2c1 (single isomer, unassigned; isomer 2) [Example 425]
IC50: 1 to 5 µM
--
molecule: CC(Nc1ccccc1C(=O)O)c1cc(F)cc2c(=O)cc(N3CCC(F)(F)CC3)oc12 (stereo not drawn) [Example 399]
IC50: 1 to 5 µM

# ---- query molecule ----
Input: Read off the recorded IC50 for COC12CC(C1)N(c1cc(=O)c3cc(C)cc(C(C)Nc4ccccc4C(=O)O)c3o1)C2 (single isomer, unassigned) [Example 111]
Output: > 10 µM
